System: Fusarium culmorum
test-summary: Fungistatic activity against Fusarium culmorum AM 282 assessed as effect on diameter of fungal growth zone
Assay type: functional, organism-based
stated-conditions: Fusarium culmorum, AM 282; read-out: IC50
Please go through the items and note down their IC50.
Please provide the amount together with its unit, number first.

What value of IC50 has been reported for the following compound? CCCCCCCCCC[N+](C)(C)CCCCCCCCCC.[Cl-] [DIDECYLDIMETHYLAMMONIUM CHLORIDE]
24.5 µg/mL

Entry to check: CC1(C)OC(=O)[C@H]2C[C@@H](Br)[C@H](Br)C[C@H]21 (racemic)
155 µg/mL

Entry to check: CC1(C)OC(=O)[C@H]2C[C@@H](O)[C@H](Br)C[C@H]21 (racemic)
166 µg/mL

Entry to check: O=C1OC(=O)[C@@H]2CC=CC[C@H]12
310 µg/mL

----------
Please go through the items and note down their IC50.
Test system: Fusarium culmorum
test-summary: Fungistatic activity against Fusarium culmorum AM 282 assessed as effect on diameter of fungal growth zone
Type: functional, organism-based
stated-conditions: Fusarium culmorum, AM 282; read-out: IC50
Reply with just the number (in µg/mL).

What value of IC50 has been reported for the following compound? O=C1OC[C@@H]2CC=CC[C@H]12
171

Entry to check: O=C1OC[C@@H]2CCCC[C@H]12
169

Entry to check: O=C1OC[C@@H]2C[C@@H](Br)[C@H](O)C[C@H]12 (racemic)
172

Entry to check: O=C1OC(=O)C2CCCCC12 (racemic)
292

Entry to check: CC1(C)OC(=O)[C@H]2C[C@H]3O[C@H]3C[C@H]21 (racemic)
142
